# TGT: Ylr278c (UniProt Q05854)
# Sequence (Q05854 whole entry): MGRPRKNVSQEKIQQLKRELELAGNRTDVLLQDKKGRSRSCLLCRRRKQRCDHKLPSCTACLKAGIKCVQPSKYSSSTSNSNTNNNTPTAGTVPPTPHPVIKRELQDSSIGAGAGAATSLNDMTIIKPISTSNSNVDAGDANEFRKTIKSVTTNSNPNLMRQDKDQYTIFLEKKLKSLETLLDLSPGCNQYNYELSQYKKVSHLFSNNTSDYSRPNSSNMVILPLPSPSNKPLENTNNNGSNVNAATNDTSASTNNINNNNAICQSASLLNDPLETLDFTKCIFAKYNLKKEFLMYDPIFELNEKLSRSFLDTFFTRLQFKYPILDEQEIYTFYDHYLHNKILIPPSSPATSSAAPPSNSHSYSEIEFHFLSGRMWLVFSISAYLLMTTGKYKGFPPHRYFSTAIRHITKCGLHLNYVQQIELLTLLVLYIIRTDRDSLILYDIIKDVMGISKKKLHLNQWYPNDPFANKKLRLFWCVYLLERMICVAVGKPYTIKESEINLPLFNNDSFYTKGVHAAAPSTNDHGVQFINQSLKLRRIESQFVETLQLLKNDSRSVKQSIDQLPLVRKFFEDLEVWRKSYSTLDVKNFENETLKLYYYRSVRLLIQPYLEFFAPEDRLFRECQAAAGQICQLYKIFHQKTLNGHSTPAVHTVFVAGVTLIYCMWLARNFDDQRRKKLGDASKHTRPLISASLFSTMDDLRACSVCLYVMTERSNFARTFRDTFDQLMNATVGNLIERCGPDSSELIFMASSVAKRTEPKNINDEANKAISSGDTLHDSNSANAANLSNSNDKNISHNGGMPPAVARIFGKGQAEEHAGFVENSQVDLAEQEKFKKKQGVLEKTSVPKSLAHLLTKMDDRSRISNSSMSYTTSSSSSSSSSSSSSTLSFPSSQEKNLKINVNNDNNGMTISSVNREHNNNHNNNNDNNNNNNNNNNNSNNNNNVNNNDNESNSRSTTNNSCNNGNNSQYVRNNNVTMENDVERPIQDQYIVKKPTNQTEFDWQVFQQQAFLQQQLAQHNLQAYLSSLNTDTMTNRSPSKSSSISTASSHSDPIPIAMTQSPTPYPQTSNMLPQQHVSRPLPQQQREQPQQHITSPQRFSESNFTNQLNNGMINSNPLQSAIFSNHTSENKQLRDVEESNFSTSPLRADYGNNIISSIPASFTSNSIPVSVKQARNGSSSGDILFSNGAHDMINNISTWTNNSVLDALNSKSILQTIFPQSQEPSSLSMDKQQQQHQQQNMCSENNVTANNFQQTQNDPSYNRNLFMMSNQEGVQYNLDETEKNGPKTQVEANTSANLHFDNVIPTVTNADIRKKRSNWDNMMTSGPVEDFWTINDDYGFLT
# ASSAY_NAME: PBM E-score (8-mer binding enrichment) (E-score (-0.5 to 0.5)); higher = stronger / more preferred TF binding
# CONDITION_SUMMARY: protein concentration: 200 nM; construct: GST-DNA-binding domain
The full ranking holds about 33,000 sequences; the median of “E-score (-0.5 to 0.5)” is about -0.054, and the highest 2% start at about 0.39. The sample as a whole holds a higher share of the highest values than the screen did.
Kindly return YES if reported PBM E-score is no lower than 0.2; return NO if it is lower.

Problem: Check this sequence for PBM E-score at or above 0.2: GCCCCGAC
Solution: YES

Problem: Check this sequence for PBM E-score at or above 0.2: CGTCGTAG
Solution: NO

Problem: Check this sequence for PBM E-score at or above 0.2: AACCGGCA
Solution: YES

Problem: Check this sequence for PBM E-score at or above 0.2: AACCGGAT
Solution: YES

Problem: Check this sequence for PBM E-score at or above 0.2: AACCGGTG
Solution: YES

Problem: Check this sequence for PBM E-score at or above 0.2: ACCCCGAC
Solution: YES

Problem: Check this sequence for PBM E-score at or above 0.2: ACCCCGAT
Solution: YES

Problem: Check this sequence for PBM E-score at or above 0.2: GTCAACAA
Solution: NO

Problem: Check this sequence for PBM E-score at or above 0.2: CATCGCAA
Solution: NO

Problem: Check this sequence for PBM E-score at or above 0.2: AACCCGAT
Solution: YES

Problem: Check this sequence for PBM E-score at or above 0.2: CCCACCGG
Solution: YES

Problem: Check this sequence for PBM E-score at or above 0.2: CACACCGG
Solution: YES

Problem: Check this sequence for PBM E-score at or above 0.2: AACCGGAG
Solution: YES

Problem: Check this sequence for PBM E-score at or above 0.2: AATACCGC
Solution: YES

Problem: Check this sequence for PBM E-score at or above 0.2: AACCGCAG
Solution: NO

Problem: Check this sequence for PBM E-score at or above 0.2: AATACCGT
Solution: YES

Problem: Check this sequence for PBM E-score at or above 0.2: AACCGGAA
Solution: YES

Problem: Check this sequence for PBM E-score at or above 0.2: TACCGGTA
Solution: YES

Problem: Check this sequence for PBM E-score at or above 0.2: AACCGGAC
Solution: YES

Problem: Check this sequence for PBM E-score at or above 0.2: GACAATGC
Solution: NO

Problem: Check this sequence for PBM E-score at or above 0.2: AACCGCAC
Solution: NO

---

# TGT: Ylr278c (UniProt Q05854)
# ASSAY_NAME: PBM E-score (8-mer binding enrichment) (E-score (-0.5 to 0.5)); higher = stronger / more preferred TF binding
# CONDITION_SUMMARY: protein concentration: 200 nM; construct: GST-DNA-binding domain
In all, about 33,000 sequences were measured (“E-score (-0.5 to 0.5)”: median about -0.054, highest 2% from about 0.39 on). The sample holds the highest values, similar sequences and a random draw of the others, so the mix is not that of the screen.
OUTCOME_MEASURE: PBM E-score
Just the number, please.

Problem: Dear colleague, I am looking for the recorded PBM E-score of the following sequence: TCTAAAGA
Solution: -0.115

Problem: Dear colleague, I am looking for the recorded PBM E-score of the following sequence: AATTCAGG
Solution: 0.127

Problem: Dear colleague, I am looking for the recorded PBM E-score of the following sequence: GCCGGACA
Solution: 0.447

Problem: Dear colleague, I am looking for the recorded PBM E-score of the following sequence: CGTCCGCC
Solution: 0.319

Problem: Dear colleague, I am looking for the recorded PBM E-score of the following sequence: GGGCTCAA
Solution: -0.00819

Problem: Dear colleague, I am looking for the recorded PBM E-score of the following sequence: ATGCTTCC
Solution: -0.0282

Problem: Dear colleague, I am looking for the recorded PBM E-score of the following sequence: AACTTATA
Solution: 0.0873

Problem: Dear colleague, I am looking for the recorded PBM E-score of the following sequence: TCCGGCGA
Solution: 0.437

Problem: Dear colleague, I am looking for the recorded PBM E-score of the following sequence: GTTGTGTA
Solution: -0.159

Problem: Dear colleague, I am looking for the recorded PBM E-score of the following sequence: CTCGATGA
Solution: -0.12

Problem: Dear colleague, I am looking for the recorded PBM E-score of the following sequence: GGGAACAA
Solution: 0.0828

Problem: Dear colleague, I am looking for the recorded PBM E-score of the following sequence: ATCTGAAA
Solution: -0.039

Problem: Dear colleague, I am looking for the recorded PBM E-score of the following sequence: ACACTGCC
Solution: 0.154

Problem: Dear colleague, I am looking for the recorded PBM E-score of the following sequence: TAATTCCA
Solution: -0.0294

Problem: Dear colleague, I am looking for the recorded PBM E-score of the following sequence: ACTGCCCT
Solution: -0.112

Problem: Dear colleague, I am looking for the recorded PBM E-score of the following sequence: CTCCGCCC
Solution: 0.457

Problem: Dear colleague, I am looking for the recorded PBM E-score of the following sequence: AATATTGT
Solution: 0.0529

Problem: Dear colleague, I am looking for the recorded PBM E-score of the following sequence: TGGAACAA
Solution: -0.206

Problem: Dear colleague, I am looking for the recorded PBM E-score of the following sequence: AAAAGTCC
Solution: 0.371

Problem: Dear colleague, I am looking for the recorded PBM E-score of the following sequence: TAGTCATA
Solution: -0.145

Problem: Dear colleague, I am looking for the recorded PBM E-score of the following sequence: ACCCGCCG
Solution: 0.307

Problem: Dear colleague, I am looking for the recorded PBM E-score of the following sequence: CATCGGTC
Solution: 0.15

Problem: Dear colleague, I am looking for the recorded PBM E-score of the following sequence: CGTTCCGA
Solution: 0.288

Problem: Dear colleague, I am looking for the recorded PBM E-score of the following sequence: ATGTTCTG
Solution: -0.11

Problem: Dear colleague, I am looking for the recorded PBM E-score of the following sequence: CTAGCGGC
Solution: 0.0333

Problem: Dear colleague, I am looking for the recorded PBM E-score of the following sequence: CTTCATGC
Solution: -0.0885

Problem: Dear colleague, I am looking for the recorded PBM E-score of the following sequence: CAAGCAGG
Solution: 0.00606

Problem: Dear colleague, I am looking for the recorded PBM E-score of the following sequence: CCCGGACA
Solution: 0.405

Problem: Dear colleague, I am looking for the recorded PBM E-score of the following sequence: AAAAGGTG
Solution: -0.196

Problem: Dear colleague, I am looking for the recorded PBM E-score of the following sequence: CACGCGAC
Solution: -0.0553

Problem: Dear colleague, I am looking for the recorded PBM E-score of the following sequence: ATTCGCTC
Solution: 0.0759

Problem: Dear colleague, I am looking for the recorded PBM E-score of the following sequence: AGGAACAG
Solution: -0.279

Problem: Dear colleague, I am looking for the recorded PBM E-score of the following sequence: CAGCCACC
Solution: 0.0671

Problem: Dear colleague, I am looking for the recorded PBM E-score of the following sequence: GAGACTCC
Solution: 0.249

Problem: Dear colleague, I am looking for the recorded PBM E-score of the following sequence: TAAGAAAA
Solution: -0.0396

Problem: Dear colleague, I am looking for the recorded PBM E-score of the following sequence: GCAGGATA
Solution: -0.221

Problem: Dear colleague, I am looking for the recorded PBM E-score of the following sequence: ACAGACCA
Solution: -0.0751

Problem: Dear colleague, I am looking for the recorded PBM E-score of the following sequence: ACTAGAAG
Solution: -0.121

Problem: Dear colleague, I am looking for the recorded PBM E-score of the following sequence: ATCCGCCC
Solution: 0.291

Problem: Dear colleague, I am looking for the recorded PBM E-score of the following sequence: CCCGGCAA
Solution: 0.303

Problem: Dear colleague, I am looking for the recorded PBM E-score of the following sequence: AATCGGAG
Solution: 0.466

Problem: Dear colleague, I am looking for the recorded PBM E-score of the following sequence: ACCGGCAA
Solution: 0.285

Problem: Dear colleague, I am looking for the recorded PBM E-score of the following sequence: AGTTCCGA
Solution: 0.43

Problem: Dear colleague, I am looking for the recorded PBM E-score of the following sequence: GCCGGCGA
Solution: 0.385

Problem: Dear colleague, I am looking for the recorded PBM E-score of the following sequence: GAGGCTTA
Solution: -0.0425

Problem: Dear colleague, I am looking for the recorded PBM E-score of the following sequence: AATCGGAT
Solution: 0.384

Problem: Dear colleague, I am looking for the recorded PBM E-score of the following sequence: GTTCGCAA
Solution: -0.0313

Problem: Dear colleague, I am looking for the recorded PBM E-score of the following sequence: CGGAACAA
Solution: 0.427

Problem: Dear colleague, I am looking for the recorded PBM E-score of the following sequence: CATCGGAC
Solution: 0.424

Problem: Dear colleague, I am looking for the recorded PBM E-score of the following sequence: ACCGGCCA
Solution: 0.169

Problem: Dear colleague, I am looking for the recorded PBM E-score of the following sequence: GCGTATAC
Solution: -0.00732

Problem: Dear colleague, I am looking for the recorded PBM E-score of the following sequence: CGTATATA
Solution: -0.111

Problem: Dear colleague, I am looking for the recorded PBM E-score of the following sequence: GGTTCCGA
Solution: 0.384

Problem: Dear colleague, I am looking for the recorded PBM E-score of the following sequence: CATCGGGC
Solution: 0.211

Problem: Dear colleague, I am looking for the recorded PBM E-score of the following sequence: CCCTCTAG
Solution: -0.311

Problem: Dear colleague, I am looking for the recorded PBM E-score of the following sequence: CAGTCCAA
Solution: -0.218

Problem: Dear colleague, I am looking for the recorded PBM E-score of the following sequence: AAGTTCAT
Solution: 0.154

Problem: Dear colleague, I am looking for the recorded PBM E-score of the following sequence: ACCTTCTA
Solution: -0.186

Problem: Dear colleague, I am looking for the recorded PBM E-score of the following sequence: GGATTTTA
Solution: 0.283

Problem: Dear colleague, I am looking for the recorded PBM E-score of the following sequence: AATCTTGA
Solution: -0.172

Problem: Dear colleague, I am looking for the recorded PBM E-score of the following sequence: GCCGGATA
Solution: 0.4

Problem: Dear colleague, I am looking for the recorded PBM E-score of the following sequence: CGAATGGA
Solution: -0.121

Problem: Dear colleague, I am looking for the recorded PBM E-score of the following sequence: GGACACAC
Solution: 0.149

Problem: Dear colleague, I am looking for the recorded PBM E-score of the following sequence: GATTATGA
Solution: -0.0204

Problem: Dear colleague, I am looking for the recorded PBM E-score of the following sequence: ACCGGACA
Solution: 0.401

Problem: Dear colleague, I am looking for the recorded PBM E-score of the following sequence: GAGTTCAC
Solution: 0.0107

Problem: Dear colleague, I am looking for the recorded PBM E-score of the following sequence: CGGACGCC
Solution: 0.366

Problem: Dear colleague, I am looking for the recorded PBM E-score of the following sequence: AGTTCCTG
Solution: -0.0874

Problem: Dear colleague, I am looking for the recorded PBM E-score of the following sequence: GGCACTAC
Solution: -0.0733

Problem: Dear colleague, I am looking for the recorded PBM E-score of the following sequence: AAGTTACT
Solution: 0.0192

Problem: Dear colleague, I am looking for the recorded PBM E-score of the following sequence: AAATACGG
Solution: 0.14

Problem: Dear colleague, I am looking for the recorded PBM E-score of the following sequence: ACCTCTTA
Solution: 0.176

Problem: Dear colleague, I am looking for the recorded PBM E-score of the following sequence: CCGCTTGC
Solution: 0.217

Problem: Dear colleague, I am looking for the recorded PBM E-score of the following sequence: TAGCTTAA
Solution: -0.198

Problem: Dear colleague, I am looking for the recorded PBM E-score of the following sequence: AATCGGTG
Solution: 0.126

Problem: Dear colleague, I am looking for the recorded PBM E-score of the following sequence: GTAGCGAC
Solution: -0.186

Problem: Dear colleague, I am looking for the recorded PBM E-score of the following sequence: CTCCGCCA
Solution: 0.391

Problem: Dear colleague, I am looking for the recorded PBM E-score of the following sequence: ATCCGCCG
Solution: 0.401

Problem: Dear colleague, I am looking for the recorded PBM E-score of the following sequence: TCAGCACA
Solution: -0.175

Problem: Dear colleague, I am looking for the recorded PBM E-score of the following sequence: TACGGCAA
Solution: 0.129

Problem: Dear colleague, I am looking for the recorded PBM E-score of the following sequence: TCGGGTCA
Solution: 0.232

Problem: Dear colleague, I am looking for the recorded PBM E-score of the following sequence: CACGGATA
Solution: 0.196

Problem: Dear colleague, I am looking for the recorded PBM E-score of the following sequence: CTATCTGA
Solution: -0.328

Problem: Dear colleague, I am looking for the recorded PBM E-score of the following sequence: CGGAACAG
Solution: 0.388

Problem: Dear colleague, I am looking for the recorded PBM E-score of the following sequence: ATAAGACC
Solution: 0.0726

Problem: Dear colleague, I am looking for the recorded PBM E-score of the following sequence: AGGGTGCC
Solution: -0.211

Problem: Dear colleague, I am looking for the recorded PBM E-score of the following sequence: CATCCACG
Solution: -0.153

Problem: Dear colleague, I am looking for the recorded PBM E-score of the following sequence: AGTAGATG
Solution: -0.0703

Problem: Dear colleague, I am looking for the recorded PBM E-score of the following sequence: ATCCATCA
Solution: -0.135

Problem: Dear colleague, I am looking for the recorded PBM E-score of the following sequence: TATCCTCA
Solution: -0.0486

Problem: Dear colleague, I am looking for the recorded PBM E-score of the following sequence: GGAGGTTA
Solution: 0.101
